target: human CD33 L134Q (human, UniProt P20138 18-364); assay: flow cytometry, HEK293-T, IgG;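 also: CD33 point mutants transiently expressed, antibody binding measured by fluorescence in duplicate, background subtracted and scaled to binding on wild-type CD33 as 100%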
Sequence (P20138 18-364 L134Q limits assumed): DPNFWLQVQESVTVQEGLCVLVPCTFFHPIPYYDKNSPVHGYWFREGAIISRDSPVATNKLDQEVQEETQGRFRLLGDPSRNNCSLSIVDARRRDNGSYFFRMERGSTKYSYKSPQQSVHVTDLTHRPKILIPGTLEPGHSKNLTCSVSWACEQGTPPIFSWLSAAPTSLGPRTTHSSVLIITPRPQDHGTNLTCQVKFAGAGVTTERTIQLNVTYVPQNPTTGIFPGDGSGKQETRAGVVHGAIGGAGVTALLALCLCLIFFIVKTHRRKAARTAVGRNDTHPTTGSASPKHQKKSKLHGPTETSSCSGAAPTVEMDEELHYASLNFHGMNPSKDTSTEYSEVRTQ
measuredQuantity: Mean % WT Binding (% WT binding)
// units = % WT binding; emit number, no label

Examples from the recorded data:
Refmab #4 (antibody, human IgG1, V domains shown, tested in IgG format) VH: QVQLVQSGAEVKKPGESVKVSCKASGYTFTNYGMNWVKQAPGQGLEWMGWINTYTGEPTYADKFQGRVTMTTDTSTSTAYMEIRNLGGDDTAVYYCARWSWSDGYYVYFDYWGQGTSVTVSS VL: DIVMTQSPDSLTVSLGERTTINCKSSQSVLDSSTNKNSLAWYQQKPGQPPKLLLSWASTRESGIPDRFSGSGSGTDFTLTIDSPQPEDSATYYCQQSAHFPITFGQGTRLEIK; 86.8
Refmab #3 (antibody, human IgG1, V domains shown, tested in IgG format) VH: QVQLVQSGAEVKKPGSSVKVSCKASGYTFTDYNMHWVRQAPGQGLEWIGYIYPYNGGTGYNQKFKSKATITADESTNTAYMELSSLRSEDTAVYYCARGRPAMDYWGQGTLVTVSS VL: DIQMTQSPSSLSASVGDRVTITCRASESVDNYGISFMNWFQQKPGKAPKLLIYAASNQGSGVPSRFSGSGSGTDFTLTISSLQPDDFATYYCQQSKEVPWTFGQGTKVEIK; 87.7
Refmab #2 (antibody, human IgG1, V domains shown, tested in IgG format) VH: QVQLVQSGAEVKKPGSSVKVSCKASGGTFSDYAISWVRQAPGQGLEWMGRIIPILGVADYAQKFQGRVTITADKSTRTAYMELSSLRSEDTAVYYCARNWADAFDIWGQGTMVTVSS VL: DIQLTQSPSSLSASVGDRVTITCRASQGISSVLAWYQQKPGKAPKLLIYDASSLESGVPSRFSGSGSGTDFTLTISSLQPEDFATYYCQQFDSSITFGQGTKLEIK; 77.4

Moving on to another binder below.
Short answer for Refmab #1 (antibody, human IgG1, V domains shown, tested in IgG format; also called hP67.6) VH: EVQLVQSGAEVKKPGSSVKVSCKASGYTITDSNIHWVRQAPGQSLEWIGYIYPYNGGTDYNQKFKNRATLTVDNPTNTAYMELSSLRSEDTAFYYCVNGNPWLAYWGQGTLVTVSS VL: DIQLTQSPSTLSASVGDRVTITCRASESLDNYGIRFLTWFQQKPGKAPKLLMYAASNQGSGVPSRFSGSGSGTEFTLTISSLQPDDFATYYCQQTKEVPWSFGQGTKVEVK : Mean % WT Binding was 83

Ref: patent US20260242735A1
